TGT: IGF2BP3 (Homo sapiens)
Construct: immobilised by amine coupling on CM5 chip (PDB 6GQE used only for docking)
Sequence (O00425 whole entry): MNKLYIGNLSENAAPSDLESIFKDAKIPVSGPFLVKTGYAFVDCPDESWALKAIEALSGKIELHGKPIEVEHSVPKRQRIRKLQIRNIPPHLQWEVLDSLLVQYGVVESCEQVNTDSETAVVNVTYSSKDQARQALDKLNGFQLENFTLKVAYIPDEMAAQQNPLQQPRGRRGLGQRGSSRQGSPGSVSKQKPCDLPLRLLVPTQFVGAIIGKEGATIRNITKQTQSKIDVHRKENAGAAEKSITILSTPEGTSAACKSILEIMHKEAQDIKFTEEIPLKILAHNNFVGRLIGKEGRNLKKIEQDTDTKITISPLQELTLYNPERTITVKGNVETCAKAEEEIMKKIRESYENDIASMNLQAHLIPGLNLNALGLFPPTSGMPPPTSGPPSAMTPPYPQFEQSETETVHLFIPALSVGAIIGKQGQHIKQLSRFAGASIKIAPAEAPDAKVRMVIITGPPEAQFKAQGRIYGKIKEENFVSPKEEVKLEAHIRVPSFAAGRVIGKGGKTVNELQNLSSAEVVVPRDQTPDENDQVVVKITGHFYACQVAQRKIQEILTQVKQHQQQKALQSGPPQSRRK
ASSAY_INFO: SPR (BIAcore T200, CM5 chip, immobilised IGF2BP3, […] Langmuir global fit)
Type: binding
MEASURE: Kd (µM)
One number for each entry, in µM.

Problem: Requested field: Kd. Item: COc1cc2c[n+](C)c3c4cc5c(cc4ccc3c2cc1OC)OCO5 [nitidine chloride]
Solution: 6.37
